Reference source: patent US8470828B2

Label fulfilled when melting point < 200 °C; otherwise not fulfilled.

Solved entries:
CC[C@@H](O)CC(=O)N[C@H]1CC[C@H](CCN2CCN(c3nccc4c3OCC4)CC2)CC1; fulfilled
O=C(CC1COC1)N[C@H]1CC[C@H](CCN2CCN(c3nccc4c3OCC4)CC2)CC1; fulfilled
O=C(CC1CCOCC1)N[C@H]1CC[C@H](CCN2CCN(c3nccc4ccoc34)CC2)CC1; not fulfilled
O=C(N[C@H]1CC[C@H](CCN2CCN(c3nccc4c3OCC4)CC2)CC1)C1CCC1; fulfilled
COCCC(=O)N[C@H]1CC[C@H](CCN2CCN(c3nccc4ccoc34)CC2)CC1; fulfilled

Q) Record `CC#CC(=O)N[C@H]1CC[C@H](CCN2CCN(c3nccc4c3OCC4)CC2)CC1` : is its melting point strictly below 200 °C?
A) fulfilled
